These entries and their values trace back to ChEMBL document CHEMBL2016445.

# test-summary: Drug uptake in nu/nu homozygous mouse plasma at 100 mg/kg, po as a solution in 10% EtOH/45% PEG400/water + 1:1 HCl after 4 hrs by HPLC/MS/MS analysis
# Assay type: ADME, organism-based
# Set-up: dose 100 mg/kg, route oral
quantity: concentration at 4 h

Query (molecule): O=C(Cc1cnc[nH]1)N[C@@H](COCc1ccccc1)C(=O)Nc1ccc(Oc2ccc(Cl)cc2)cc1 ; field requested: concentration at 4 h
11 µM

---

# test-summary: Oral bioavailability in overnight fasted CD Sprague-Dawley rat at 3 mg/kg by HPLC/MS/MS analysis
# Assay type: ADME, organism-based
# condition-parameters: in vivo
quantity: bioavailability

Query (molecule): O=C(Nc1ccc(Oc2ccc(F)cc2)cc1)[C@@H]1C[C@@H](Cc2ccc(F)cc2)CN1C(=O)Cn1ccnn1 ; field requested: bioavailability
76.4%

---

# test-summary: Drug uptake in nu/nu homozygous mouse plasma at 100 mg/kg, po as a suspension in 10% NMP/corn oil after 1 hr by HPLC/MS/MS analysis
# Type: ADME, organism-based
# Set-up: dose 100 mg/kg, route oral
quantity: concentration at 1 h (µM)
Record the value in µM, omitting the unit from your answer.

> print(dat)
                           substance.smiles  quantitative.result
1  O=C(Nc1ccc(Oc2ccc(F)cc2)cc1)[C@@H]1C[C@@H](Cc2ccccc2)CN1C(=O)Cc1cnc[nH]1                 26.2

Next up:
Query (molecule): O=C(Cc1cnc[nH]1)N[C@@H](COCc1ccccc1)C(=O)Nc1ccc(Oc2ccccc2)cc1 ; field requested: concentration at 1 h
4.4

---

# test-summary: Drug uptake in nu/nu homozygous mouse plasma at 100 mg/kg, po as a suspension in 10% NMP/corn oil after 4 hrs by HPLC/MS/MS analysis
# Format: ADME, organism-based
# Parameters: dose 100 mg/kg, route oral
quantity: concentration at 4 h (µM)
Record the value in µM, omitting the unit from your answer.

Solved entries (count: 3):
> print(dat)
                           substance.smiles              quantity  quantitative.result
1  O=C(Cc1cnc[nH]1)N[C@@H](COCc1ccccc1)C(=O)Nc1ccc(Oc2ccccc2)cc1  concentration at 4 h                  0.3
2  O=C(Nc1ccc(Oc2ccc(F)cc2)cc1)[C@@H]1CN(Cc2ccccc2)CCN1C(=O)Cc1cnc[nH]1  concentration at 4 h                  6.3
3  O=C(Nc1ccc(Oc2ccc(F)cc2)cc1)[C@@H]1C[C@@H](Cc2ccc(F)cc2)CN1C(=O)Cn1nccn1  concentration at 4 h                   23

Next up:
Query (molecule): O=C(Nc1ccc(Oc2ccc(F)cc2)cc1)[C@@H]1C[C@@H](c2ccccc2)CN1C(=O)Cc1cnc[nH]1 ; field requested: concentration at 4 h
27.2

---

# test-summary: Drug uptake in nu/nu homozygous mouse plasma at 100 mg/kg, po as a solution in 10% EtOH/45% PEG400/water + 1:1 HCl after 1 hr by HPLC/MS/MS analysis
# Assay type: ADME, organism-based
# Design: dose 100 mg/kg, route oral
quantity: concentration at 1 h (µM)
Record the value in µM, omitting the unit from your answer.

Query (compound): O=C(Cc1cnc[nH]1)N[C@@H](COCc1ccccc1)C(=O)Nc1ccc(Oc2ccc(Cl)cc2)cc1 ; field requested: concentration at 1 h
11

---

# test-summary: AUC (0 to infinity) in overnight fasted CD Sprague-Dawley rat at 3 mg/kg, po by HPLC/MS/MS analysis
# Assay type: ADME, organism-based
# Parameters: dose 3 mg/kg, route oral, time infinity
# condition-parameters: plasma
quantity: AUC(0-inf) (µM·h)
Record the value in µM·h, omitting the unit from your answer.

Query (compound): O=C(Nc1ccc(Oc2ccc(F)cc2)cc1)[C@@H]1C[C@@H](Cc2ccc(F)cc2)CN1C(=O)Cn1ccnn1 ; field requested: AUC(0-inf)
108

---

# test-summary: Half life in overnight fasted CD Sprague-Dawley rat at 3 mg/kg, po by HPLC/MS/MS analysis
# Format: ADME, organism-based
# Parameters: dose 3 mg/kg, route oral
# condition-parameters: in vivo
quantity: half-life

Query (molecule): O=C(Nc1ccc(Oc2ccc(F)cc2)cc1)[C@@H]1C[C@@H](Cc2ccc(F)cc2)CN1C(=O)Cn1ccnn1 ; field requested: half-life
22.5 h

---

# system: Sphingosine 1-phosphate receptor 1 (Homo sapiens, UniProt P21453)
# Sequence (P21453 whole entry): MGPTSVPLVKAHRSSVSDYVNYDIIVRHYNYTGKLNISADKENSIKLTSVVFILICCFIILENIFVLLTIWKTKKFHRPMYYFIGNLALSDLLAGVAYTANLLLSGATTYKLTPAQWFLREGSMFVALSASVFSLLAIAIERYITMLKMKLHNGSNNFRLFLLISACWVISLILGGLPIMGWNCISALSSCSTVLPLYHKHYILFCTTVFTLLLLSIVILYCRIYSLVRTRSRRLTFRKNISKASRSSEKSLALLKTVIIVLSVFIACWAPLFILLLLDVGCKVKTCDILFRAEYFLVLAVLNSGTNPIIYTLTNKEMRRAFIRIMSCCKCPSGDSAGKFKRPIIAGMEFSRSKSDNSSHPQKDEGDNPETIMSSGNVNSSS
# test-summary: Antagonist activity at S1P1 receptor expressed in HEK293 cells assessed as inhibition of S1P-induced cAMP response after 90 mins by spectrophotometry
# Format: functional, cell-based
quantity: IC50 (nM)
Record the value in nM, omitting the unit from your answer.

> print(dat)
                                   molecule  quantity  unit.of.measurement  quantitative.result
1  O=C(Cc1c[nH]cn1)N[C@@H](COCc1ccccc1)c1nc2cc(Oc3ccc(F)cc3)ccc2[nH]1      IC50                   nM                  239

Query (molecule): O=C(Nc1ccc(Oc2ccc(F)cc2)cc1)[C@@H]1C[C@@H](Cc2ccc(F)cc2)CN1C(=O)Cn1nccn1 ; field requested: IC50
4.8

Query (molecule): O=C(Nc1ccc(Oc2ccc(F)cc2)cc1)[C@@H]1CN(Cc2ccccc2)CCN1C(=O)Cc1cnc[nH]1 ; field requested: IC50
84

Query (molecule): O=C(Nc1ccc(Oc2ccc(F)cc2)cc1)[C@@H]1C[C@@H](c2ccccc2)CN1C(=O)Cc1cnc[nH]1 ; field requested: IC50
158

Query (molecule): O=C(Nc1ccc(Oc2ccc(F)cc2)cc1)[C@@H]1C[C@@H](Cc2ccccc2)CN1C(=O)Cc1cnc[nH]1 ; field requested: IC50
84.7

---

Collected IC50 values appear next to each entry.
# system: Sphingosine 1-phosphate receptor 1 (Homo sapiens, UniProt P21453)
# test-summary: Antagonist activity at S1P1 receptor expressed in HEK293 cells assessed as inhibition of S1P-induced cAMP response after 90 mins by spectrophotometry
# Type: functional, cell-based

Solved entries (count: 6):
> print(dat)
                                   compound     result
1  O=C(N[C@@H](COCc1ccccc1)C(=O)Nc1ccc(Oc2ccccc2)cc1)c1cnc[nH]1  > 1000 nM
2  O=C(NC(COCc1ccccc1)C(=O)Nc1ccc(Oc2ccccc2)cc1)C1CC1 (racemic)     297 nM
3  O=C(Cc1ccccc1F)N[C@@H](COCc1ccccc1)C(=O)Nc1ccc(Oc2ccccc2)cc1     500 nM
4  O=C(Nc1ccc(Oc2ccc(F)cc2)cc1)[C@H]1C[C@H](Cc2ccc(F)cc2)CN1C(=O)Cn1ccnn1  > 1000 nM
5  O=C(Cc1cnc[nH]1)N[C@@H](COCc1ccccc1)C(=O)Nc1ccc(Oc2ccccc2)c(Cl)c1     211 nM
6  O=C(Nc1ccc(Oc2ccc(F)cc2)cc1)[C@@H]1C[C@@H](Cc2ccc(F)cc2)CN1C(=O)Cn1cncn1     5.8 nM

Query (compound): O=C(Cc1cc(Cl)ccc1Cl)N[C@@H](COCc1ccccc1)C(=O)Nc1ccc(Oc2ccccc2)cc1 ; field requested: IC50
> 10000 nM

Query (compound): O=C(Cc1cnc[nH]1)N[C@@H](COCc1ccccc1)C(=O)Nc1ccc(Oc2ccccc2Cl)cc1 ; field requested: IC50
> 10000 nM

Query (compound): CN(CC(=O)N[C@H](COCc1ccccc1)C(=O)Nc1ccc(Oc2ccccc2)cc1)C(=O)c1ccccc1 ; field requested: IC50
> 10000 nM

Query (compound): O=C(Cc1cnc[nH]1)N[C@@H](COCc1ccccc1)C(=O)Nc1ccc(-c2ccccc2)cc1 ; field requested: IC50
> 10000 nM

Query (compound): O=C(Cc1cnc[nH]1)N[C@@H](COCc1ccccc1)C(=O)Nc1ccc(Cc2ccccc2)cc1 ; field requested: IC50
> 10000 nM
